System: KATO III (FGFR2 amp)
measurement-notes: In vitro growth inhibition of KATO III tumor cells (MTT/CCK8)
Assay type: cell-based, Human
experimental-context: Homo sapiens, KATO III; in vitro growth inhibition (or induction of apoptosis), cells cultured 3 to 5 days, MTT (CCK8); read-out: IC50 KATO III (FGFR2 amp)
reported-metric: IC50 (nM)

Look over these answered cases.
{"input-smiles": "COc1cc2nccc(Oc3ccc(NC(=O)Nc4cc(C(C)(C)C)n[nH]4)c(C)c3)c2cc1C(N)=O", "unit-of-measurement": "nM", "observed": 1.62}
{"input-smiles": "CN1CCCN(CCCOc2cc3nccc(Oc4ccc(NC(=O)Nc5cc(C(C)(C)C)n[nH]5)c(Cl)c4)c3cc2C(N)=O)CC1", "unit-of-measurement": "nM", "observed": 5.67}

a: COc1cc2nccc(Nc3ccc(NC(=O)Nc4cc(C(C)(C)C)on4)cc3)c2cc1C(N)=O
b: C=CC(=O)Nc1cc2c(Oc3ccc(NC(=O)Nc4cc(C(C)(C)C)n[nH]4)cc3Cl)ccnc2cc1OC
c: COCCOc1cc2nccc(Oc3ccc(NC(=O)Nc4cc(C(C)(C)C)nn4C)c(Cl)c3)c2cc1C(N)=O
d: CC(=O)Nc1cc2c(Oc3ccc(NC(=O)Nc4cc(C(C)(C)C)n[nH]4)c(Cl)c3)ccnc2cc1OCCCN1CCN(C)CC1
e: COc1cc2nccc(Oc3ccc(NC(=O)Nc4cc(C(C)C)n[nH]4)c(Cl)c3)c2cc1C(N)=O
Sort entries by IC50 from minimum to maximum value. Please reply with the labels ordered as requested. Many thanks. d, c, e, b, a
(d: 0.54 nM, c: 1.08 nM, e: 2.53 nM, b: 4.07 nM, a: 36.6 nM)
